biological target: human CXCR4 (on cells, viral lipoparticles or membrane extracts) (human, UniProt P61073 1-352); test: cell-based or functional assay
Sequence (P61073 whole entry): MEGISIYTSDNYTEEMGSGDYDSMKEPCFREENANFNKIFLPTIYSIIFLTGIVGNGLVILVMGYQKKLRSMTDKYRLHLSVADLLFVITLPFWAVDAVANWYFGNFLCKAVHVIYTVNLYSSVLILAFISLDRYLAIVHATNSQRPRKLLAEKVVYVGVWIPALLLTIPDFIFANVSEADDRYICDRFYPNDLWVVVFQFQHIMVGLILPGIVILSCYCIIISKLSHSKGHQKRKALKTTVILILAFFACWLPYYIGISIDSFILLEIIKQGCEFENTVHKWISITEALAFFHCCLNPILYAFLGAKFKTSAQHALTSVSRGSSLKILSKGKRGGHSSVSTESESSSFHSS
Each entry below carries its reported IC50, CXCL-12 chemotaxis, MOLM-13.

>  <binder>
14D09-35GS-57A07 (bispecific antibody, also made with FLAG3-His6 in Pichia; also called CXCR4#1-CD123#1; 14D09-57A07) EVQLVESGGGLVQAGGSLRLSCVASGISSSKRNMGWYRQAPGKQRESVATISSGGNKDYTDAVKDRFTISRDTTKNTVYLQMNSLKPEDTAVYYCKIEAGTGWATRRGYTYWGQGTLVTVSSGGGGSGGGGSGGGGSGGGGSGGGGSGGGGSGGGGSEVQLVESGGGLVQAGGSLRLSCAASGSIFSGNVMGWYRRQAPGKEREWVAAIASGGSIYYRDSVKGRFTISRDNAKNTVYLQMNSLKPEDTAVYYCNSHPPTLPYWGQGTLVTVSS

>  <output.unit>
nM

>  <IC50, CXCL-12 chemotaxis, MOLM-13>
3.6

$$$$
>  <binder>
14D09 (VHH, also called CXCR4#1; 14D9) VHH: EVQLVESGGGLVQAGGSLRLSCVASGISSSKRNMGWYRQAPGKQRESVATISSGGNKDYTDAVKDRFTISRDTTKNTVYLQMNSLKPEDTAVYYCKIEAGTGWATRRGYTYWGQGTLVTVSS

>  <output.unit>
nM

>  <IC50, CXCL-12 chemotaxis, MOLM-13>
8.62

$$$$
>  <binder>
281F12 (VHH, also called CXCR4#2; 4CXCR281F12-FLAG3-HIS6) VHH: EVQLVESGGGLVQAGDSLRLSCAASGRAFSRYAMGWFRQAPGKEREFVAAIGWGPSKTNYADSVKGRFTISRDNAKNTVYLQMNTLKPEDTAVYSCAAKFVNTDSTWSRSEMYTYWGQGTLVTVSS

>  <output.unit>
nM

>  <IC50, CXCL-12 chemotaxis, MOLM-13>
86

$$$$
>  <binder>
281F12-35GS-55A01 (bispecific antibody, also called CXCR4#2-CD123#2; 281F12-55A01) EVQLVESGGGLVQAGDSLRLSCAASGRAFSRYAMGWFRQAPGKEREFVAAIGWGPSKTNYADSVKGRFTISRDNAKNTVYLQMNTLKPEDTAVYSCAAKFVNTDSTWSRSEMYTYWGQGTLVTVSSGGGGSGGGGSGGGGSGGGGSGGGGSGGGGSGGGGSEVQLVESGGGSVQAGGSLRLSCTTSGRALNMYVMGWFRQAPGNEREFVAATSSSGGSTSYPDSVKGRFTISRDNAKNTVYLQMNSLKPEDTAAYRCAASPYVSTPTMNILEEYRYWGQGTLVTVSS

>  <output.unit>
nM

>  <IC50, CXCL-12 chemotaxis, MOLM-13>
7.85

$$$$

Attribution: patent US20160251440A1
